From: PubChem BioAssay (NCI)

Tested on: MDA-MB-231 breast
Assay: NCI tumour cell line growth inhibition, 48 h; in the data active = GI50 below about 0.43 µM; inactive = the rest
Give one outcome, nothing more. List: label 1 (active), label 0 (inactive)

Q: What classification did "C#CCOc1c(OC)cc(C(=O)/C(C)=C/c2cccc(N=[N+]=[N-])c2)cc1OC" end up with in this test?
Ans: label 0

Q: What classification did "Cc1ccc(S(=O)(=O)C2=C3C(=C(c4ccccc4)c4ccccc43)CN(S(=O)(=O)c3ccc(C)cc3)C2)cc1" end up with in this test?
Ans: label 0

Q: What classification did "O=C(Nc1ncc(Cc2ccc(Cl)cc2)s1)c1ccc2c(c1)OCCO2" end up with in this test?
Ans: label 1

Q: What classification did "CCC1=C[C@H]2CN(CCc3c([nH]c4ccccc34)[C@@](C(=O)OC)(c3cc4c(cc3OC)N(C)[C@H]3[C@@](O)(C(=O)OC)[C@H](OC(C)=O)[C@]5(CC)[C@@H]6C[C@@H]6CN6CC[C@]43[C@@H]65)C2)C1" end up with in this test?
Ans: label 1

Q: What classification did "Clc1cccc(Cc2cn3cc(-c4ccccc4)nc3s2)c1" end up with in this test?
Ans: label 0

Q: What classification did "Cn1cc(-c2nc(-c3cn(C)c4ncccc34)cs2)c2cc(F)ccc21" end up with in this test?
Ans: label 0

Q: What classification did "CCCNNC(=O)c1ccc(CNC(=O)/C=C/c2ccccc2)cc1" end up with in this test?
Ans: label 1

Q: What classification did "N#CC(C#N)=Cc1ccc(-c2ccc(-c3nc4ccccc4s3)cc2)s1" end up with in this test?
Ans: label 0

Q: What classification did "Nc1nn(C(=O)Nc2ccc(Cc3ccccc3)cc2)c2ccccc12" end up with in this test?
Ans: label 0

====

Test system: M14 melanoma
Assay: NCI tumour cell line growth inhibition, 48 h
Please go through the items and note down their TGI.

Just so you know, measured TGI for "[O-][N+]1=C(c2ccccc2)COc2ccccc21" came out at > 100 µM

Just so you know, measured TGI for COC(=O)[C@]1(C)CCC[C@]2(C)C3CC4OOC3(C=C4C(C)C)CCC21 (some centres not stated) came out at 30.4 µM

Just so you know, measured TGI for "O=CNc1ccc2c(c1)Cc1cc([N+](=O)[O-])ccc1-2" came out at > 100 µM

Just so you know, measured TGI for "O=C1C(c2c(O)[nH]c3ccc(S(=O)(=O)N(CCO)CCO)cc23)=Nc2ccccc21" came out at > 100 µM

Just so you know, measured TGI for "N#C/C(N)=C(\C#N)N=CNc1ccccc1N" came out at > 100 µM

Just so you know, measured TGI for Nc1nc(Cl)cc(NCC2(CO)CCC(OCc3ccccc3)C2)n1 (configuration not stated) came out at 61 µM

Just so you know, measured TGI for CC(=O)OCC(OC(C)=O)C(OC(C)=O)C(OC(C)=O)C(/C=N\Nc1nc2ccccc2c(=O)[nH]1)OC(C)=O (configuration not stated) came out at > 100 µM

Just so you know, measured TGI for CCNC(=O)Cc1nc2c(=O)[nH]cnc2n1C1OC(CO)C(O)C1O (configuration not stated) came out at > 100 µM

Just so you know, measured TGI for "Cc1cc(NC(=O)C(=O)Cc2nc3ccccc3s2)ccc1Cl" came out at > 100 µM

Just so you know, measured TGI for "C(=N/Nc1ccccn1)/c1cccnc1" came out at > 100 µM

Just so you know, measured TGI for "O=C1/C(=c2\c3ccccc3n3c(=O)c4ccccc4nc23)Nc2ccccc21" came out at > 100 µM

Just so you know, measured TGI for CCOC(=O)C(SCCO)C(C(=O)OCC)n1cc(C)c(=O)[nH]c1=O (configuration not stated) came out at 25 µM

Just so you know, measured TGI for "COc1ccc2c(c1)CC[C@@H]1[C@@H]2CC[C@]2(C)c3c(cc(C(=O)c4ccccc4)c4sccc34)C[C@@H]12" came out at > 100 µM

Just so you know, measured TGI for "N=c1c2ccccc2nc2oc3ccc(Cl)cc3n12" came out at 56.9 µM

Just so you know, measured TGI for "CC(C)(C)OC(=O)N1C(=O)OC[C@@H]2C=C[C@@H]21" came out at > 100 µM

Just so you know, measured TGI for CCCN1CN(C(C(=O)N[C@@H]2C(=O)N3C(C(=O)O)=C(C)CSC23)c2ccccc2)CSC1=S (some centres not stated) came out at > 100 µM

Just so you know, measured TGI for "CCOCC[P+](c1ccccc1)(c1ccccc1)c1ccccc1" came out at > 100 µM

Just so you know, measured TGI for "CC1=C/C(=C(/c2ccc(O)c(C)c2)c2ccccc2C(=O)O)C=CC1=O" came out at 32.5 µM

Just so you know, measured TGI for "O=C(CN1CCCC1)Nc1ccc2sc3ccccc3c(=O)c2n1" came out at 54.4 µM

Just so you know, measured TGI for "FC(F)(F)c1ccccc1C=NC12CC3CC(CC(C3)C1)C2" came out at > 100 µM

Just so you know, measured TGI for "COc1ccc2cc(C(=O)/C=C/c3ccccc3OC)ccc2c1" came out at 25.6 µM

Just so you know, measured TGI for COc1cc(C2c3cc4c(cc3OC(O)C2C)OCO4)cc(OC)c1O (configuration not stated) came out at > 60 µM
